Values were extracted from PubChem BioAssay (NCI).

system: MOLT-4 leukemia; experiment: NCI-60 one-dose screen, 48 h (100 = growth as untreated, 0 = no growth, -100 = all killed); conditions: 10 µM
About 83,000 compounds went through this panel and 20% of them were active in at least one assay; those are over-represented in the sample as a whole.
compounds and their reported growth
parameterMeasured: growth (%)

[
  {
    "compound": "O=C(CNc1nc(-c2ccccc2)cs1)Nc1ccc([N+](=O)[O-])cc1",
    "number": 15.7
  },
  {
    "compound": "CO[C@@H]1CSS[C@H]1Cn1nc(-c2ccc(Oc3ccccc3)cc2)c2c(N)ncnc21",
    "number": 14
  },
  {
    "compound": "COc1ccccc1[C@H]1C(C(=O)c2ccc(Cl)cc2)C2(N[C@@H]1c1ccccc1)C(=O)Nc1ccc(Cl)cc12 (stereo partly specified)",
    "number": -21.1
  },
  {
    "compound": "COc1ccc(N2N=C(c3ccc4c(c3)OCCO4)CC2c2cccc(NC(=O)CCCNS(=O)(=O)c3ccc(F)cc3)c2)cc1 (stereo unspecified)",
    "number": 34
  },
  {
    "compound": "O=c1c2ccccc2nc(COc2ccccc2)n1/N=C/c1ccc(N2CCCC2)cc1",
    "number": 78.1
  },
  {
    "compound": "CC1=C(C(=O)OC(C)C)C(c2ccc(O)cc2)NC(=S)N1 (stereo unspecified)",
    "number": 94.8
  }
]

====

test system: ACHN renal; assay: NCI-60 one-dose screen, 48 h (100 = growth as untreated, 0 = no growth, -100 = all killed); conditions: 10 µM
The panel holds about 83,000 compounds, 20% with a hit somewhere; the sample as a whole holds those more often.
parameterMeasured: growth (%)

[
  {
    "molecule": "CN(CCO)c1oc(-c2ccccc2)nc1[P+](c1ccccc1)(c1ccccc1)c1ccccc1",
    "assayedTarget": "ACHN renal",
    "parameterMeasured": "growth",
    "number": 56.3
  },
  {
    "molecule": "CCN1CCN(Cc2ccc(NC(=O)c3cccc(-n4cc(-c5ccc(NC(C)=O)nc5)nn4)c3)cc2C(F)(F)F)CC1",
    "assayedTarget": "ACHN renal",
    "parameterMeasured": "growth",
    "number": 109
  },
  {
    "molecule": "CN1C(=O)N(C)C2SC(N/N=C/c3ccccc3F)=NC21 (stereo not drawn)",
    "assayedTarget": "ACHN renal",
    "parameterMeasured": "growth",
    "number": 85.5
  },
  {
    "molecule": "O=S(=O)(Nc1ncccn1)c1ccc(-n2c(-c3ccccc3)nc(-c3ccccc3)c2-c2ccccc2)cc1",
    "assayedTarget": "ACHN renal",
    "parameterMeasured": "growth",
    "number": 97.3
  },
  {
    "molecule": "Cn1cc(/C=N/Nc2ccnc3cc(Cl)ccc23)c2ccccc21",
    "assayedTarget": "ACHN renal",
    "parameterMeasured": "growth",
    "number": -92.7
  },
  {
    "molecule": "C/C(=N\\NC(N)=S)c1ccc(Nc2nc(SC(C)C)nc(-c3ccccc3)c2C#N)cc1",
    "assayedTarget": "ACHN renal",
    "parameterMeasured": "growth",
    "number": 58.3
  },
  {
    "molecule": "O=C(Nc1cccc(C(F)(F)F)c1)c1cncc(C#Cc2cnc3ccc(N4CCOCC4)nn23)c1",
    "assayedTarget": "ACHN renal",
    "parameterMeasured": "growth",
    "number": 3.28
  },
  {
    "molecule": "Cc1noc2c(Cc3ccccc3)nn(CC(=O)N/N=C/c3ccc(F)cc3)c(=O)c12",
    "assayedTarget": "ACHN renal",
    "parameterMeasured": "growth",
    "number": 9.34
  },
  {
    "molecule": "Nc1nnc(-c2c[nH]c3ncccc23)c(-c2c[nH]c3ccc(Br)cc23)n1",
    "assayedTarget": "ACHN renal",
    "parameterMeasured": "growth",
    "number": 35.1
  },
  {
    "molecule": "COC[C@@H](CC(C)C)N=C1N/C(=C\\c2ccc3ncsc3c2)C(=O)N1C",
    "assayedTarget": "ACHN renal",
    "parameterMeasured": "growth",
    "number": -1.55
  },
  {
    "molecule": "COc1ccc(/C(CSc2nnc(-c3c[nH]c4ccccc34)n2-c2ccccc2)=N/O)cc1",
    "assayedTarget": "ACHN renal",
    "parameterMeasured": "growth",
    "number": 22.3
  },
  {
    "molecule": "O=c1c2ccccc2nc(COc2ccccc2)n1/N=C/c1ccc(N2CCOCC2)cc1",
    "assayedTarget": "ACHN renal",
    "parameterMeasured": "growth",
    "number": 60.6
  },
  {
    "molecule": "CN1CCN(c2ccc(C(=O)/C=C/c3cc(Br)ccc3F)cc2)CC1",
    "assayedTarget": "ACHN renal",
    "parameterMeasured": "growth",
    "number": 63.7
  },
  {
    "molecule": "C/C(=N\\N=C\\c1ccc(Cl)c([N+](=O)[O-])c1)c1ccc2c(c1)Nc1ccccc1S2",
    "assayedTarget": "ACHN renal",
    "parameterMeasured": "growth",
    "number": 45.6
  },
  {
    "molecule": "O=c1[nH]c2ccc(Cl)cc2cc1CSc1ccc(Nc2nccc(-c3ccc(Cl)cc3)n2)cc1",
    "assayedTarget": "ACHN renal",
    "parameterMeasured": "growth",
    "number": 83.5
  },
  {
    "molecule": "O=C1Nc2ccc(F)cc2/C1=C/c1cccc(OCc2ccccn2)c1",
    "assayedTarget": "ACHN renal",
    "parameterMeasured": "growth",
    "number": 37.9
  },
  {
    "molecule": "O/N=C(\\CSc1nnc(-c2c[nH]c3ccccc23)n1-c1ccccc1)c1ccc(Br)cc1",
    "assayedTarget": "ACHN renal",
    "parameterMeasured": "growth",
    "number": -83.5
  },
  {
    "molecule": "Cc1cc2nc3c4ccccc4n(CCO)c3nc2cc1C",
    "assayedTarget": "ACHN renal",
    "parameterMeasured": "growth",
    "number": -6.25
  },
  {
    "molecule": "N#Cc1c(NC(=O)c2ccc(C(F)(F)F)c(Cl)c2)sc2c1CCC(=O)C2",
    "assayedTarget": "ACHN renal",
    "parameterMeasured": "growth",
    "number": -96.5
  },
  {
    "molecule": "O=C(CNc1nc(-c2ccccc2)cs1)Nc1cccc([N+](=O)[O-])c1",
    "assayedTarget": "ACHN renal",
    "parameterMeasured": "growth",
    "number": -100
  },
  {
    "molecule": "COC[C@@H](CC(C)C)N=C1NC(=O)/C(=C/c2ccc3ncsc3c2)N1",
    "assayedTarget": "ACHN renal",
    "parameterMeasured": "growth",
    "number": 6.22
  },
  {
    "molecule": "Cc1ccc(-c2nc3ccc(C(=O)N=Nc4c(O)[nH]c5ccc(Cl)cc45)cc3[nH]2)cc1",
    "assayedTarget": "ACHN renal",
    "parameterMeasured": "growth",
    "number": 55.1
  },
  {
    "molecule": "O=C(Cn1nc(-c2ccccc2)ccc1=O)NN1C(=O)c2ccccc2C1=O",
    "assayedTarget": "ACHN renal",
    "parameterMeasured": "growth",
    "number": 99
  },
  {
    "molecule": "Nc1nc2c(F)c(F)c(F)c(F)c2s1",
    "assayedTarget": "ACHN renal",
    "parameterMeasured": "growth",
    "number": 114
  },
  {
    "molecule": "O=C1Nc2ccc(F)cc2/C1=C/c1cccc(OCc2ccccc2)c1",
    "assayedTarget": "ACHN renal",
    "parameterMeasured": "growth",
    "number": 22.4
  },
  {
    "molecule": "CCOC(=O)C1=C(N)N(c2ccccc2)C2=C(C(=O)CC(C)(C)C2)C1c1ccc(Cl)cc1 (stereo not drawn)",
    "assayedTarget": "ACHN renal",
    "parameterMeasured": "growth",
    "number": 22.3
  },
  {
    "molecule": "Cc1ccc(NC(=O)c2ccc(-n3c(=O)[nH]c4ccccc4c3=O)cc2)cc1",
    "assayedTarget": "ACHN renal",
    "parameterMeasured": "growth",
    "number": 68.3
  },
  {
    "molecule": "COc1ccc2[nH]c(O)c(N=NC(=O)COc3ccc(NC(=O)Nc4ccc(Cl)cc4)cc3)c2c1",
    "assayedTarget": "ACHN renal",
    "parameterMeasured": "growth",
    "number": 100
  },
  {
    "molecule": "CC(=O)Nc1ccc(-c2cn(-c3cccc(C(=O)Nc4cc(C(F)(F)F)cc(C(F)(F)F)c4)c3)nn2)cn1",
    "assayedTarget": "ACHN renal",
    "parameterMeasured": "growth",
    "number": -26.2
  },
  {
    "molecule": "Cc1cc(C)nc(SCC(=O)Nc2ccc(S(N)(=O)=O)cc2)n1",
    "assayedTarget": "ACHN renal",
    "parameterMeasured": "growth",
    "number": 101
  },
  {
    "molecule": "O=C1N/C(=N\\c2nccs2)S/C1=C\\c1cccs1",
    "assayedTarget": "ACHN renal",
    "parameterMeasured": "growth",
    "number": 17.1
  },
  {
    "molecule": "C=CC(=O)Nc1nc(-c2cccc(NS(=O)(=O)c3cccc4c(N(C)C)cccc34)c2)cs1",
    "assayedTarget": "ACHN renal",
    "parameterMeasured": "growth",
    "number": -79.8
  },
  {
    "molecule": "O=C(Nc1ccc(OCC(=O)c2ccccc2)cc1)Nc1ccc(Cl)c(C(F)(F)F)c1",
    "assayedTarget": "ACHN renal",
    "parameterMeasured": "growth",
    "number": 18.1
  },
  {
    "molecule": "CC(=O)OC[C@@]1(C)C2CC[C@]3(C)C(CC=C4C5CC(C)(C)CC[C@]5(C(=O)Nc5ccccc5)CC[C@]43C)[C@@]2(C)C[C@@H](OC(C)=O)[C@@H]1OC(C)=O (stereo partly drawn)",
    "assayedTarget": "ACHN renal",
    "parameterMeasured": "growth",
    "number": 34.4
  },
  {
    "molecule": "N#Cc1ccc(NC(=O)CSc2ccc(-c3ccc(Br)cc3)nn2)cc1",
    "assayedTarget": "ACHN renal",
    "parameterMeasured": "growth",
    "number": 64.5
  },
  {
    "molecule": "CC1(C)CC[C@]2(C(=O)O)CC[C@]3(C)C(=CC[C@@H]4[C@@]5(C)C/C(=C/c6ccncc6)[C@H](O)C(C)(C)[C@@H]5CC[C@]43C)[C@@H]2C1",
    "assayedTarget": "ACHN renal",
    "parameterMeasured": "growth",
    "number": 25.7
  },
  {
    "molecule": "COc1ccc(-c2ccc(/C=N/NC(=O)c3[nH]c4ccc(Br)cc4c3-c3ccccc3)o2)cc1",
    "assayedTarget": "ACHN renal",
    "parameterMeasured": "growth",
    "number": 30.9
  },
  {
    "molecule": "CC(=O)NCC1=C(C)C=C2C(=O)[C@](C)(O)C3(CC3)C(C)=C21",
    "assayedTarget": "ACHN renal",
    "parameterMeasured": "growth",
    "number": -37.4
  }
]
